These entries and their values trace back to paper PMC7265341.

Target: CDK8/Cyclin C (Homo sapiens, UniProt P49336)
Sequence (P49336 whole entry): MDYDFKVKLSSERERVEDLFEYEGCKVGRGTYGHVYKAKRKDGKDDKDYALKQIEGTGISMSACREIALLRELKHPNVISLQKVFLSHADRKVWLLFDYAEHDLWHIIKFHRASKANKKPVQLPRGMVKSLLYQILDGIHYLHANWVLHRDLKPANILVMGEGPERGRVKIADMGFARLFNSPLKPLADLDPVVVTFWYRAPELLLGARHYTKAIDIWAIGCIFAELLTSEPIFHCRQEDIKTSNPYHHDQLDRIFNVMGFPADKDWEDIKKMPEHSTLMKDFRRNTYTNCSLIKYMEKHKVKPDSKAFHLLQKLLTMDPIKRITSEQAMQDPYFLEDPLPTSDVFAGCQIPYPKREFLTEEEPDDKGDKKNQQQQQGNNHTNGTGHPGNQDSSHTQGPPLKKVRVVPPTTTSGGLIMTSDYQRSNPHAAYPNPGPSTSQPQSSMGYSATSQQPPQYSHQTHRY
Sequence (P24863 whole entry partner): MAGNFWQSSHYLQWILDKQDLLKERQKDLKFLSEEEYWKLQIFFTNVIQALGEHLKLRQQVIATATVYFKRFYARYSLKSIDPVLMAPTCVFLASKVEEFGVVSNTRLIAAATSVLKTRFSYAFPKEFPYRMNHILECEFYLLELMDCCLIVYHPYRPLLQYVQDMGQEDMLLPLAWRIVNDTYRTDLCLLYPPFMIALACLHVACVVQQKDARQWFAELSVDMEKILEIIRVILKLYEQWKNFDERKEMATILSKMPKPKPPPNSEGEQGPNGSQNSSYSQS
Assay: NanoBRET live-cell target engagement, NanoLuc-CDK8/Cyclin C in HEK-293
Assay type: binding
Conditions: independent experiment 2; read-out: CDK8/C IC50
test.readout: IC50 (µM)

[
  {
    "compound": "Cc1c(Br)c(Br)c2c3c1nc(N1CCNCC1)n3CCC2.Cl [SEL 120-34A]",
    "assay.system": "CDK8/Cyclin C (Homo sapiens, UniProt P49336)",
    "reported.result": 0.077
  }
]

----------
Target: CDK16/Cyclin Y (Homo sapiens, UniProt Q00536)
Sequence (Q00536 whole entry): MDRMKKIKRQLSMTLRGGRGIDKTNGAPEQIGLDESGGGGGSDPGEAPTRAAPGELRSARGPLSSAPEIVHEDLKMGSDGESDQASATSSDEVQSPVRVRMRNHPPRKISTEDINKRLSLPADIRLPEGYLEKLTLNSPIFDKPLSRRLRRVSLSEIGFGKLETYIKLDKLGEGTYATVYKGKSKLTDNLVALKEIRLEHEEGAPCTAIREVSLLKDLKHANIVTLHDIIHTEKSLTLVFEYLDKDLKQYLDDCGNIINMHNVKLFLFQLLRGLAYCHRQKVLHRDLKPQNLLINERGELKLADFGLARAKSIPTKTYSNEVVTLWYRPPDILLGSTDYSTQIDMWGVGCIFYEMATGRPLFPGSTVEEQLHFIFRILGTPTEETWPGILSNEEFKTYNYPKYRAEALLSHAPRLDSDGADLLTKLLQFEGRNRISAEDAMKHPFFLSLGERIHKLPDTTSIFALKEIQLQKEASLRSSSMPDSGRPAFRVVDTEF
Sequence (Q8ND76 whole entry partner): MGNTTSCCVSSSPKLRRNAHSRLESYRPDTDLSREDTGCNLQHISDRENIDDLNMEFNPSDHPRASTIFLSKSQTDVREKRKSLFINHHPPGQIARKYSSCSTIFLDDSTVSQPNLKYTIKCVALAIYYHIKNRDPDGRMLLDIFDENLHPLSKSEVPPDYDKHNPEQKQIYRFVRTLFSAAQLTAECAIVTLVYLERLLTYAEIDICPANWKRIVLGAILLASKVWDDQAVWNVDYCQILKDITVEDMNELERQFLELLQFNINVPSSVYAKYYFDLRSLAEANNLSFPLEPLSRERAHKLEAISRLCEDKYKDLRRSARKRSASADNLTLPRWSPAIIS
Experiment: NanoBRET live-cell target engagement, CDK16-NanoLuc/Cyclin Y in HEK-293
Format: binding
Conditions: 10µM; independent experiment 1; read-out: CDK16/Y Inhibition at 10µM (%)
Catalogue of compounds with associated inhibition at 10 µM

[
  {
    "compound": "CN1CCN(c2ccc(Nc3ncc4cc5n(c4n3)C3(CCCCC3)CNC5=O)nc2)CC1 [Trilaciclib]",
    "unit.abbrev": "%",
    "inhibition at 10 µM": 57.8
  },
  {
    "compound": "CN(C)C/C=C/C(=O)Nc1ccc(C(=O)N2CCC[C@@H](Nc3ncc(Cl)c(-c4c[nH]c5ccccc45)n3)C2)cc1 [THZ531]",
    "unit.abbrev": "%",
    "inhibition at 10 µM": 75.1
  },
  {
    "compound": "CN1C/C=C/CCOc2cccc(c2)-c2ccnc(n2)Nc2cccc(c2)C1 [SB1317]",
    "unit.abbrev": "%",
    "inhibition at 10 µM": 96.3
  },
  {
    "compound": "CC(C)CC(=O)Nc1[nH]nc2c1CN(C(=O)C1CCN(C)CC1)C2(C)C [PHA-793887]",
    "unit.abbrev": "%",
    "inhibition at 10 µM": 84.5
  },
  {
    "compound": "CC(=O)c1c(C)c2cnc(Nc3ccc(N4CCNCC4)cn3)nc2n(C2CCCC2)c1=O [Palbociclib]",
    "unit.abbrev": "%",
    "inhibition at 10 µM": 61.4
  },
  {
    "compound": "CC(C)[C@H](CO)Nc1nc(Nc2ccc(C(=O)O)c(Cl)c2)c2ncn(C(C)C)c2n1 [Purvalanol B]",
    "unit.abbrev": "%",
    "inhibition at 10 µM": 11.3
  }
]
